Reference source for all entries: ChEMBL document CHEMBL5303304

Tested on: U2OS
Test description: Incucyte cell viability with U2OS; further: unitless GR value; below 1 slowed growth and below 0 cell loss
Type: toxicity, cell-based
Run parameters: human, 18 h, 10 µM, compound concentration 10 uM, replicate number 2
Growth Rate: recorded values
Write the value as a bare number.

>>> numeric_readout("NC(=O)c1cc2c(-c3ccc(C(=O)NCc4ccnc(Cl)c4)s3)cccc2s1")
-0.03

Exercise: Would you kindly share the measured Growth Rate for CN(C)Cc1cccc(NC(=C2C(=O)Nc3cc(C(=O)N(C)C)ccc32)c2ccccc2)c1 ?
Solution: 0.82

Exercise: Would you kindly share the measured Growth Rate for COc1ccc([C@@H]2Sc3ccccc3N(CCN(C)C)C(=O)[C@@H]2OC(C)=O)cc1.Cl [DILTIAZEM HYDROCHLORIDE] ?
Solution: 0.94

Exercise: Would you kindly share the measured Growth Rate for CN1CCN([C@H]2CC[C@@H](n3cc(-c4ccc(Oc5ccccc5)cc4)c4c(N)ncnc43)CC2)CC1 ?
Solution: 0.03

Exercise: Would you kindly share the measured Growth Rate for COc1cc(-c2nn([C@H]3CC[C@H](N4CCN(C(C)=O)CC4)CC3)c3ncnc(N)c23)ccc1NC(=O)c1cc2ccccc2n1C ?
Solution: 0.95

###

Tested on: Fibroblast
Test description: Incucyte cell viability with human fibroblast; further: unitless GR value; below 1 slowed growth and below 0 cell loss
Assay type: toxicity, cell-based
Run parameters: 24 h, 10 µM, compound concentration 10 uM, replicate number 2
Quantity name: Growth Rate
Write the value as a bare number.

Exercise: Would you kindly share the measured Growth Rate for NC(=O)c1cc2c(-c3ccc(C(=O)NCc4ccnc(Cl)c4)s3)cccc2s1 ?
Solution: -0.11

Exercise: Would you kindly share the measured Growth Rate for COc1ccc(OC)c(-c2ccc(NC(=O)c3ccncc3F)cc2)c1 ?
Solution: 0.92

Exercise: Would you kindly share the measured Growth Rate for Cl.O=C(NCCN1CCC2(CC1)C(=O)NCN2c1cccc(F)c1)c1ccc2ccccc2c1 ?
Solution: -0.14

Exercise: Would you kindly share the measured Growth Rate for C[C@@H](CO)CCC[C@@H](C)[C@H]1CC[C@H]2[C@@H]3CC=C4C[C@@H](O)CC[C@]4(C)[C@H]3CC[C@]12C ?
Solution: 0.25

Exercise: Would you kindly share the measured Growth Rate for O=C1CCCN1CCNc1nc(Nc2ccc(Cl)c(Cl)c2)ncc1C(F)(F)F ?
Solution: 0.45

Exercise: Would you kindly share the measured Growth Rate for CCC(=O)N[C@@H]1CC[C@H](C(=O)N(C)c2ccc(-c3nc4ccccc4o3)cc2)C1 ?
Solution: 0.81

Exercise: Would you kindly share the measured Growth Rate for COc1cc(N2CCC(N3CCN(C)CC3)CC2)ccc1Nc1ncc(Cl)c(Nc2ccccc2S(=O)(=O)C(C)C)n1 ?
Solution: -0.32

Exercise: Would you kindly share the measured Growth Rate for CCOC(=O)c1ccc(CN(Cc2ccc(-c3cccc(S(C)(=O)=O)c3)cc2)S(=O)(=O)c2c(C)cc(C)cc2C)o1 ?
Solution: 0.87

Exercise: Would you kindly share the measured Growth Rate for O=C(Nc1ccccc1Cl)c1cnc2ccc(C3CCNCC3)cn12.O=C(O)C(=O)O ?
Solution: 0.33

###

Test system: U2OS
Test description: Incucyte cell viability with U2OS; further: unitless GR value; below 1 slowed growth and below 0 cell loss
Assay type: toxicity, cell-based
Run parameters: human, 0 h, 10 µM, compound concentration 10 uM, replicate number 1
Quantity name: Growth Rate
Write the value as a bare number.

>>> numeric_readout("CN1CCC(F)(Cn2cnc(-c3ccc(F)cn3)c2-c2ccnc3[nH]ccc23)CC1")
0.97

Exercise: Record CC(C)(O)c1ccc2c(c1)ncn2-c1cccc(-c2ccccc2C#N)c1 : what is its Growth Rate with U2OS?
Solution: 0.93

Exercise: Record O=C(Nc1cccc(C(F)(F)F)c1)c1cc(Cl)ccc1O : what is its Growth Rate with U2OS?
Solution: -0.07

Exercise: Record COc1ccc(CC(=O)NCc2ccccc2-c2ccccc2C(=O)NCc2ccc(F)cc2F)cc1 : what is its Growth Rate with U2OS?
Solution: -0.79

Exercise: Record CCn1c(-c2nc3cc(C(=O)N4CCCC(N)C4)ccc3n2C)cc2ccccc21.Cl (stereo not given) : what is its Growth Rate with U2OS?
Solution: -0.07

Exercise: Record C[C@]12CC[C@@H]3c4ccc(O)cc4CC[C@H]3[C@@H]1C[C@H]1OC(=O)C[C@]12O : what is its Growth Rate with U2OS?
Solution: 0.82

Exercise: Record Cc1ccc(C)c(OCCCC(C)(C)C(=O)O[C@@H]2O[C@H](C(=O)O)[C@@H](O)[C@H](O)[C@H]2O)c1 : what is its Growth Rate with U2OS?
Solution: 0.28

Exercise: Record Cc1[nH]c2c(N3CCCCC3)c(-c3ccccc3)nn2c(=O)c1-c1ccc(O)cc1 : what is its Growth Rate with U2OS?
Solution: -0.56

Exercise: Record Cl.O=c1cc(C2CCNCC2)n2nc3cccc(Cl)c3c2[nH]1 : what is its Growth Rate with U2OS?
Solution: 0.61

Exercise: Record Nc1ncnc2c1c(I)cn2[C@@H]1O[C@H](CO)[C@@H](O)[C@H]1O : what is its Growth Rate with U2OS?
Solution: -0.27

Exercise: Record COc1ccc(F)c(F)c1C(=O)c1cnc(NC2CCN(S(C)(=O)=O)CC2)nc1N : what is its Growth Rate with U2OS?
Solution: -1

Exercise: Record Cl.Cl.O=C1c2ccccc2C(Cc2ccncc2)(Cc2ccncc2)c2ccccc21 : what is its Growth Rate with U2OS?
Solution: -0.47

Exercise: Record Cc1ccccc1Oc1cc(-n2c(=O)cc(C(F)(F)F)[nH]c2=O)c2ccccc2c1Cl : what is its Growth Rate with U2OS?
Solution: -0.77

Exercise: Record O=C(O)CCCCN(CCc1ccccc1OCc1ccc(CCc2ccccc2)cc1)Cc1ccc(C(=O)O)cc1 : what is its Growth Rate with U2OS?
Solution: 0.14

Exercise: Record O=C(CCCN1CCC(O)(c2ccc(Cl)cc2)CC1)c1ccc(F)cc1 : what is its Growth Rate with U2OS?
Solution: 0.26

Exercise: Record CCc1cc2c(cc1-c1cccc(S(=O)(=O)F)c1)C(C)(C)c1[nH]c3cc(C#N)ccc3c1C2=O : what is its Growth Rate with U2OS?
Solution: -1

Exercise: Record O=C(Nc1cc(C(F)(F)F)ccc1N1CCCCC1)c1ccncc1 : what is its Growth Rate with U2OS?
Solution: 0.2

Exercise: Record Cc1ccc(S(=O)(=O)O)cc1.Cn1cc(-c2ccc(F)c(C(F)(F)F)c2)nc1C1CCN(c2ncnc3[nH]ncc23)CC1 : what is its Growth Rate with U2OS?
Solution: 0.87

###

System: U2OS
Test description: Incucyte cell viability with U2OS; further: unitless GR value; below 1 slowed growth and below 0 cell loss
Format: toxicity, cell-based
Run parameters: human, 24 h, 10 µM, compound concentration 10 uM, replicate number 2
Growth Rate: recorded values
Write the value as a bare number.

>>> numeric_readout("CCc1ccc(-c2ncn(CC3(F)CCN(C)CC3)c2-c2ccnc3[nH]ccc23)nc1")
0.75
>>> numeric_readout("CN(C)CCCN1c2ccccc2Sc2ccc(Cl)cc21.Cl [CHLORPROMAZINE HYDROCHLORIDE]")
0.39
>>> numeric_readout("CCN(CC)C/C=C/C(=O)Nc1cc2c(Nc3ccc(F)c(Cl)c3)ncnc2cc1OCC1CC1")
-0.01

// switching to the query molecule
Exercise: Would you kindly share the measured Growth Rate for Cn1c(C2(NC(=O)c3ccc4c(C5CCCC5)c(-c5ncc(Br)cn5)n(C)c4c3)CCC2)nc2ccc(/C=C/C(=O)O)cc21 [DELEOBUVIR] ?
Solution: 0.88

###

System: Fibroblast
Test description: Incucyte cell viability with human fibroblast; further: unitless GR value; below 1 slowed growth and below 0 cell loss
Type: toxicity, cell-based
Run parameters: 0 h, 10 µM, compound concentration 10 uM, replicate number 2
Growth Rate: recorded values
Write the value as a bare number.

Worked examples follow.
>>> numeric_readout("Nc1ncnc2c1c(I)cn2[C@@H]1O[C@H](CO)[C@@H](O)[C@H]1O [IODOTUBERCIDIN]")
0.24
>>> numeric_readout("CCN(C(=O)CO)[C@H]1CN(/C(=N\\C#N)Nc2cccc(OC(F)F)c2)N=C1c1ccc(Cl)c(Cl)c1")
0.47

Exercise: Would you kindly share the measured Growth Rate for O=C(NCCS(=O)(=O)c1ccc(C(F)(F)F)cn1)c1ccc(Cl)cc1 ?
Solution: -0.73

Exercise: Would you kindly share the measured Growth Rate for O=C(Nc1ccccc1C(=O)O)c1cc(S(=O)(=O)c2ccccc2)ccc1Cl ?
Solution: -0.73

Exercise: Would you kindly share the measured Growth Rate for Cc1cccc([C@H]2CC[C@@H](N3CCN(c4cccnc4)CC3)CC2)c1.O=C(O)C(F)(F)F.O=C(O)C(F)(F)F ?
Solution: -0.88

Exercise: Would you kindly share the measured Growth Rate for Cn1c(C2(NC(=O)c3ccc4c(C5CCCC5)c(-c5ncc(Br)cn5)n(C)c4c3)CCC2)nc2ccc(/C=C/C(=O)[O-])cc21.[Na+] [DELEOBUVIR SODIUM] ?
Solution: -0.22

Exercise: Would you kindly share the measured Growth Rate for CN(C)CCCNc1ccnc(Nc2cccc(Cl)c2)n1 ?
Solution: 0.25

Exercise: Would you kindly share the measured Growth Rate for Cn1nccc1Nc1nccc(-c2cc3c(s2)C(C)(C)N(CCN2CCOCC2)C3=O)n1 [TEMUTERKIB] ?
Solution: -0.1
